- test.details: total protein half-life in vivo (active degradation + dilution); higher = more stable protein
- condition.info: wild type E. coli NCM3722; growth: N-lim chemostat; doubling time 6 h
Reported total protein half-life in vivo values for the following sequences.

residue.sequence	total protein half-life in vivo / h
MKKLKLHGFNNLTKSLSFCIYDICYAKTAEERDGYIAYIDELYNANRLTEILSETCSIIGANILNIARQDYEPQGASVTILVSEEPVDPKLIDKTEHPGPLPETVVAHLDKSHICVHTYPESHPEGGLCTFRADIEVSTCGVISPLKALNYLIHQLESDIVTIDYRVRGFTRDINGMKHFIDHEINSIQNFMSDDMKALYDMVDVNVYQENIFHTKMLLKEFDLKHYMFHTKPEDLTDSERQEITAALWKEMREIYYGRNMPAV [P0A7F6]	2.93
MLNIVLYEPEIPPNTGNIIRLCANTGFRLHIIEPMGFAWDDKRLRRAGLDYHEFTAVTRHHDYRAFLEAENPQRLFALTTKGTPAHSAVSYQDGDYLMFGPETRGLPASILDALPAEQKIRIPMVPDSRSMNLSNAVSVVVYEAWRQLGYPGAVLRD [P0AGJ7]	5.23
MSCEELEIVWNNIKAEARTLADCEPMLASFYHATLLKHENLGSALSYMLANKLSSPIMPAIAIREVVEEAYAADPEMIASAACDIQAVRTRDPAVDKYSTPLLYLKGFHALQAYRIGHWLWNQGRRALAIFLQNQVSVTFQVDIHPAAKIGRGIMLDHATGIVVGETAVIENDVSILQSVTLGGTGKSGGDRHPKIREGVMIGAGAKILGNIEVGRGAKIGAGSVVLQPVPPHTTAAGVPARIVGKPDSDKPSMDMDQHFNGINHTFEYGDGI [P0A9D4]	5.03
